target: human NaV subtype, like NaV 1.7 (Homo sapiens); assay: E-VIPR optical membrane potential assay with electrical stimulation; format: cell-based
measurement-name: IC50

Here is how some compounds turned out for IC50.
• Cc1cc(C(=O)N2CCC3(CC2)CN(CC(F)(F)F)CC(c2cc[nH]n2)O3)ccc1OC(C)C (stereo not drawn) [Compound 211] = < 2000 nM
• COCC1CN(c2ncccn2)CC2(CCN(C(=O)c3ccc(C(C)(C)C)c(OC)c3)CC2)O1 (stereo not drawn) [Compound 191] = < 2000 nM

Here is another compound to look at.
QUERY: State the recorded IC50 for this entry: COc1cc(C(=O)N2CCC3(CC2)CN(CC(F)F)CC(c2ccccn2)O3)ccc1OC(C)C (stereo not drawn) [Compound 3]
RESULT: < 2000 nM

---

target: human NaV subtype, like NaV 1.7 (Homo sapiens, UniProt Q15858); experiment: E-VIPR optical membrane potential assay with electrical stimulation; format: cell-based; details: active against one or more sodium channels; assay and NaV subtype not specified for Table 3; read-out: IC50 Binned Activity Data
Sequence (Q15858 whole entry): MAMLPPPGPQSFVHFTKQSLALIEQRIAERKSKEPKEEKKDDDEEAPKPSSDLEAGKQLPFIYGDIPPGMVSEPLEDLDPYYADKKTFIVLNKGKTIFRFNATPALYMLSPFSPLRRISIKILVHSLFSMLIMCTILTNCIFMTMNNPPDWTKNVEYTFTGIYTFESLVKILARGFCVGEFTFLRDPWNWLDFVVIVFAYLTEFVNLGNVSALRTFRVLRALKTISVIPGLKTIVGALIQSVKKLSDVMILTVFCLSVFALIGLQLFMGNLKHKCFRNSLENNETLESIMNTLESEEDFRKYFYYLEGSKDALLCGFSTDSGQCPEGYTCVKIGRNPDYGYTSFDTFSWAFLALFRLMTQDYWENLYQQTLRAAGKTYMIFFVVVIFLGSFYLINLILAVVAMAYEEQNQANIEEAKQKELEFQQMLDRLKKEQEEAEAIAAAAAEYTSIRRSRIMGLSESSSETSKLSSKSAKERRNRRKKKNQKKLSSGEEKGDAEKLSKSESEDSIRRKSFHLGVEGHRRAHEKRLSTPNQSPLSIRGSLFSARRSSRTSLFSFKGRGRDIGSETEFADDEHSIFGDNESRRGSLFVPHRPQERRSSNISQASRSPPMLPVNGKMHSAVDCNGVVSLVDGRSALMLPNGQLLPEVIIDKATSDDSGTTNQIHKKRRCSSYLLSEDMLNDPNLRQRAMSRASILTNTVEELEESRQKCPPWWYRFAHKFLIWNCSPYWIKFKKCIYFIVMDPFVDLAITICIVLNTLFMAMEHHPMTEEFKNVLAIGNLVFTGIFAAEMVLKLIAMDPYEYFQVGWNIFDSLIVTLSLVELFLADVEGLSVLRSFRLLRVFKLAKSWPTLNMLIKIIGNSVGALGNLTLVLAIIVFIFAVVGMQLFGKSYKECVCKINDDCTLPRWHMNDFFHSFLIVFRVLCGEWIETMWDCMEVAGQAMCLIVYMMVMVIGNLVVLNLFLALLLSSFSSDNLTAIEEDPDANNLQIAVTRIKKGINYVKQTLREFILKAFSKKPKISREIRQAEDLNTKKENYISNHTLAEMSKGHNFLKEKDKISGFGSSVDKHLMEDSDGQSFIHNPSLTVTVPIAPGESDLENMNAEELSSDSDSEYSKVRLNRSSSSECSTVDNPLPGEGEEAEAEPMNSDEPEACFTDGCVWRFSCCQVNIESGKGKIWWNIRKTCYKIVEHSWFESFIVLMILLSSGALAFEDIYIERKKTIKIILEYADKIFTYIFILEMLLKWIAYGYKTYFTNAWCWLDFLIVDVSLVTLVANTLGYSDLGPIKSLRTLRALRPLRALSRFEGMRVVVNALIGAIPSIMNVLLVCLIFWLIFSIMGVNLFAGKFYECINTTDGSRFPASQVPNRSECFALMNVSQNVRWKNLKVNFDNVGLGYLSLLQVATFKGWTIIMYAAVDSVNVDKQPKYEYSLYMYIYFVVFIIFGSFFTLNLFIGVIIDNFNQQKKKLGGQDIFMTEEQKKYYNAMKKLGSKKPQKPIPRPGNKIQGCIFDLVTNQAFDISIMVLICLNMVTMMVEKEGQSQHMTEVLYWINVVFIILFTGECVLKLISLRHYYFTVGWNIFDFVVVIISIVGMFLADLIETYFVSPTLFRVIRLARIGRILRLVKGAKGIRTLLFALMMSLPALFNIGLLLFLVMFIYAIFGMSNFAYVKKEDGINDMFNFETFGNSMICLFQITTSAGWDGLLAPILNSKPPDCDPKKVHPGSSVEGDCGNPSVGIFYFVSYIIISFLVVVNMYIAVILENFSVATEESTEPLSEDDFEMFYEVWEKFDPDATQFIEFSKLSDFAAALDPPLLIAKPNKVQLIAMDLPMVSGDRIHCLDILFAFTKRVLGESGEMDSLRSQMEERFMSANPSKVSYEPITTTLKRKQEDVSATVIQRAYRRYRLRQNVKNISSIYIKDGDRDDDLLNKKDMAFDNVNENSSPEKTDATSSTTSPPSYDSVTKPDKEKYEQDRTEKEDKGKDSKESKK
For each of the compounds below, state its IC50.

Here is how some compounds turned out for IC50.
- COCC1CN(c2cccc(OC)c2)CC2(CCN(C(=O)c3ccc(OC(C)C)c(C)c3)CC2)O1 (stereo not shown): < 2000 nM
- CCc1cnc(C2CN(CC(F)F)CC3(CCN(C(=O)c4ccc(OC(C)C)c(C)c4)CC3)O2)o1 (stereo not shown): 2000 to 5000 nM
- Cc1cc(C(=O)N2CCC3(CC2)CN(CC(C)(C)O)CC(c2ccccc2)O3)ccc1OC(C)C (stereo not shown): < 2000 nM
- COc1cc(C(=O)N2CCC3(CC2)CN(CC(F)F)CC(c2cccc(C)n2)O3)cc(F)c1OC(C)C (stereo not shown): > 5000 nM
- Cc1cccc(C2CN(CC(F)F)CC3(CCN(C(=O)c4ccc(S(=O)(=O)C(C)C)c(C)c4)CC3)O2)n1 (stereo not shown): 2000 to 5000 nM
- Cc1cc(C(=O)N2CCC3(CC2)CN(CC(F)(F)F)CC(c2ccccc2)O3)ccc1C1COC1 (stereo not shown): < 2000 nM

Here is another compound to look at.
QUERY: State the recorded IC50 for this entry: COCC1CN(Cc2cncnc2)CC2(CCN(C(=O)c3ccc(OC(C)C)c(C)c3)CC2)O1 (stereo not shown)
RESULT: > 5000 nM

---

target: human NaV subtype, like NaV 1.7 (Homo sapiens); experiment: E-VIPR optical membrane potential assay with electrical stimulation; assay type: cell-based; conditions: active against one or more sodium channels; assay and NaV subtype not specified for Table 3; read-out: IC50 Binned Activity Data
measurement-name: IC50

- O=C(c1cccc(Cl)c1)N1CCC2(CC1)CN(CC(F)(F)F)CC(c1ccccc1)O2 (stereo not shown): > 5 µM
- CCC1CN(c2ccccn2)CC2(CCN(C(=O)c3ccc(C4(O)CCC4)c(C)c3)CC2)O1 (stereo not shown): < 2 µM
- Cc1noc(C2CN(Cc3ccccc3)CC3(CCN(C(=O)c4ccc(OC(C)C)c(C)c4)CC3)O2)n1 (stereo not shown): 2 to 5 µM

Here is another compound to look at.
QUERY: Hi! What's the reported IC50 for CC#CCN1CC(CC)OC2(CCN(C(=O)c3ccc(OC)c(C(F)(F)F)c3)CC2)C1 (stereo not shown) on human NaV subtype, like NaV 1.7 (Homo sapiens)?
RESULT: > 5 µM
